# experimental-target: hOCT2 (Homo sapiens, UniProt O15244)
# Sequence (O15244 1-555): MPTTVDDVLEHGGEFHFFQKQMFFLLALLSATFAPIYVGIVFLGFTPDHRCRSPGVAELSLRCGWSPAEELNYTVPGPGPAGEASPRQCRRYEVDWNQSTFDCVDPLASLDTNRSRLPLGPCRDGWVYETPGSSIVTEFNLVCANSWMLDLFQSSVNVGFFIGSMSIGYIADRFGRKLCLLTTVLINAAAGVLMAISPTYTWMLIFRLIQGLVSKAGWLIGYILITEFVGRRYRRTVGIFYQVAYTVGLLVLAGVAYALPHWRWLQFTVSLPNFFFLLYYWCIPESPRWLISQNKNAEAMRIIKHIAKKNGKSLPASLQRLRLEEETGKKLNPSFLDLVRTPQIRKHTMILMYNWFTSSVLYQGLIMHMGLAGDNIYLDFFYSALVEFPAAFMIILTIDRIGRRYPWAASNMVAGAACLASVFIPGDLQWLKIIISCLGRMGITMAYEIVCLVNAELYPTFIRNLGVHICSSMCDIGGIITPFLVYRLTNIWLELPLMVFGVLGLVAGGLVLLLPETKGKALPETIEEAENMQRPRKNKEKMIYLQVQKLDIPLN
# assay: ASP+-based fluorescence uptake inhibition assay, hOCT2
readout: pIC50
pIC50 here: minus log base 10 of the concentration, concentration in moles per litre.

Incoming: Please give the measured pIC50 for this compound: Cn1c2c(c3ccccc31)CC[N+](C)=C2.[I-]
Outgoing: 6.28
